Test system: Septoria tritici
experimental_protocol: Test G: wheat leaf blotch on wheat seedlings, sprayed the day before inoculation, visual disease rating
Format: in vivo
assay_conditions: 200 ppm; 100 = 100% disease control, 0 = no control relative to controls
Recorded measurements of Test G disease control rating, one per entry
observable: Test G disease control rating (%)

1) COc1cc(F)c(-c2c(Cl)nc(Br)n2-c2cccc(OC(F)(F)F)c2)c(F)c1 : 97
2) COc1ccc(F)c(-c2c(Br)nc(Cl)n2-c2ccc(C)cc2)c1F : 98
3) Fc1ccc(-n2cnc(Br)c2-c2c(F)cc(F)cc2F)cc1 : 88
4) Cc1nc(Br)n(-c2ccc(F)cc2Cl)c1-c1ccc(Cl)c(F)c1 : 96
5) Cc1nc(Cl)n(-c2ccc(F)cc2Cl)c1-c1ccc(Cl)cc1 : 96
6) Cc1nc(Cl)n(-c2ccc(Cl)c(F)c2)c1-c1sc(Cl)nc1Cl : 78
7) COc1cc(F)c(-c2c(Cl)nc(Cl)n2-c2cc(C)cnc2Cl)c(F)c1 : 99
8) Fc1cc(-n2cnc(Cl)c2-c2c(F)ccc(F)c2F)ccc1Cl : 90
9) Fc1cc(-n2c(Br)nc(Cl)c2-c2c(F)ccc(F)c2F)ccc1Cl : 100
